Biological target: HLA-DRβ1*04:01 (DR4) (Homo sapiens, UniProt P01903+P01911, A100K/A169T/F76Y/I96L/K127E/L162R/M171V/N62H/P40V/Q125Y/R42H/S133A/S149N/S66Y/V115G/V209L/W38E)
Test: biochemical
Format: binding
assay_metric: IC50
# output: numeric value plus its unit

Worked cases, answers included:
substance	IC50
Ac-STEWSPCS-NH2 [QN-336-343]	6740 µM
Ac-QNSLSTEWSPCSVA-NH2 [T345A]	0.71 µM
Ac-QNSLSAEWSPCSVT-NH2 [T337A]	1.3 µM
Ac-QNSLSTEWSACSVT-NH2 [P341A]	7.75 µM

Q. Which IC50 value belongs to Ac-QNSLSTEWSPCS-NH2 [QN-332-343] ?
A. 5.58 µM

Q. I am curious: what IC50 value has been reported for Ac-QNSASTEWSPCSVT-NH2 [L335A] ?
A. 68.4 µM

Q. Find the recorded IC50 belonging to Ac-QNSLSTEASPCSVT-NH2 [W339A] and report it.
A. 1.42 µM
